Property: self-cleavage kobs at 160 uM GlcN6P; scope: individual variants
B1: glmS ribozyme (parent)
chain: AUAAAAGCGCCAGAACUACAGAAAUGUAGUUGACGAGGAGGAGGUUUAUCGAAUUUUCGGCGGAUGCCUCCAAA

Variants of: B1
run description: self-cleavage kobs at 160 uM GlcN6P; higher = faster cleavage; RNA array
assay context: with glucosamine-6-phosphate
Variants at the floor of the assay were thinned out.

Some solved entries appear below for comparison.
>  <variant annotation>
C16G G38A

>  <self-cleavage kobs at 160 uM GlcN6P>
< 1e-05 s⁻¹

$$$$
>  <variant annotation>
G37C G43C

>  <self-cleavage kobs at 160 uM GlcN6P>
< 1e-05 s⁻¹

$$$$
>  <variant annotation>
G40U A64U U65G C71G

>  <self-cleavage kobs at 160 uM GlcN6P>
< 1e-05 s⁻¹

$$$$
>  <variant annotation>
A64G G66U C70U

>  <self-cleavage kobs at 160 uM GlcN6P>
0.000115 s⁻¹

$$$$
>  <variant annotation>
G32U A48U G60A

>  <self-cleavage kobs at 160 uM GlcN6P>
< 1e-05 s⁻¹

$$$$
>  <variant annotation>
G38U C68G

>  <self-cleavage kobs at 160 uM GlcN6P>
0.000349 s⁻¹

$$$$
>  <variant annotation>
A39G G66C

>  <self-cleavage kobs at 160 uM GlcN6P>
0.000141 s⁻¹

$$$$
>  <variant annotation>
A6G A33U

>  <self-cleavage kobs at 160 uM GlcN6P>
< 1e-05 s⁻¹

$$$$
>  <variant annotation>
G51U U56C U57C G63U

>  <self-cleavage kobs at 160 uM GlcN6P>
< 1e-05 s⁻¹

$$$$
>  <variant annotation>
U45A U47G

>  <self-cleavage kobs at 160 uM GlcN6P>
0.000689 s⁻¹

$$$$

Note: attention shifts to another entry.
Let me know recorded self-cleavage kobs at 160 uM GlcN6P for A33C C50A C71G , thanks.
< 1e-05 s⁻¹
